- Tested on: HCC-2998 colon
- EXPERIMENTAL_DETAILS: NCI tumour cell line growth inhibition, 48 h
VALUE_TYPE: TGI

In [3]: df
Out[3]:
                                   compound    result
0  N#Cc1c(-c2ccccc2)c(N=Nc2ccc(Cl)cc2)c(=O)n2c1[nH]c1ccccc12  > 100 µM
1  O=C1OC(=O)c2cc(S(=O)(=O)c3ccc4c(c3)C(=O)OC4=O)ccc21  > 100 µM
2  COc1ccccc1CNCCCN1C(=O)c2ccc3c4c(ccc(c24)C1=O)C(=O)N(CCCCNCCCN)C3=O   3.03 µM
3  COc1ccc(C(=O)c2cc3c(N)c(C(=O)Nc4ccc(C)cc4)sc3nc2C)cc1  > 100 µM
4  N#Cc1c(-c2ccccc2)[nH]c(=O)n(C2OC(CO)C(O)C(O)C2O)c1=O (configuration not stated)  > 100 µM
5  CCc1cccc(CC)c1NC(=O)C1=C(C)NC(C)=C(C(=O)Nc2c(CC)cccc2CC)C1c1ccc([N+](=O)[O-])cc1  > 100 µM
6              CN(C)c1nc(=Nc2cccc(Cl)c2)ss1   47.9 µM

* * *

- System: SN12C renal
- EXPERIMENTAL_DETAILS: NCI tumour cell line growth inhibition, 48 h
# TGI values compiled below
VALUE_TYPE: TGI

>>> print(df.to_string())
                                   molecule    result
0  COC(=O)C(Cc1nc2ccccc2[nH]c1=O)C(=O)C(=O)Nc1ccc([N+](=O)[O-])cc1[N+](=O)[O-] (stereo not given)   50.6 µM
1  Cc1cc(N(CCC#N)S(C)(=O)=O)ccc1C=Nc1ccc(C(=O)NN2C(=O)/C(=C/c3ccc(N(CCC#N)CCC#N)cc3C)N=C2c2cc([N+](=O)[O-])ccc2Cl)cc1  > 100 µM
2  CC1=NN(C(=O)c2ccc([N+](=O)[O-])cc2)C(=O)C1N=Nc1ccccc1C(=O)O (stereo not given)  > 100 µM
3    C=C[C@@]1(O)CCCC2=C(C(=O)OCC)CC[C@]21C  > 100 µM
4  Cc1ccc(C)c(C2NC(=O)c3ccccc3N2)c1 (stereo not given)  > 100 µM
5                    CCOC(=N)CC(=O)c1ccccc1  > 100 µM
6  O=[N+]([O-])C1Cc2ccccc2OC1c1ccccc1 (stereo not given)     63 µM
7  Cc1c2c(OCCN3CCCCC3)nn(C)c(=O)c2c(C)n1-c1ccccc1  > 100 µM
8                      CSc1n[n+]2c(s1)SCCC2  > 100 µM
9  CN/N=C(\C)C(CN(C)C)C(c1ccccc1)c1c(O)c2ccccc2oc1=O (stereo not given)  > 100 µM

* * *

# TGI values compiled below
- Tested on: OVCAR-8 ovarian
- EXPERIMENTAL_DETAILS: NCI tumour cell line growth inhibition, 48 h
VALUE_TYPE: TGI (µM)

In [3]: df
Out[3]:
                                   molecule  value_type  units_symbol  result_qualifier  numeric_readout
0  COc1ccc(C2SCC(=O)N2NC(=O)c2ccc(NC(C)=O)cc2)cc1 (stereo not given)         TGI            µM                 >              100
1        CCc1cc(CCC(=O)Nc2c(C)cccc2C)[nH]n1         TGI            µM                 >              100
2  COc1cccc(NC(=O)c2sc3nc4c(cc3c2N)C(=O)CCC4)c1         TGI            µM                 >              100
3  CCCCCCCCCCCCCCCC(=O)N(CCCCCCCCCCC(=O)O)CC(O)C(O)C(OC1OC(CO)C(O)C(O)C1O)C(O)CO (stereo not given)         TGI            µM                 =               66
4         c1csc(C[N+]23CN4CN(CN(C4)C2)C3)c1         TGI            µM                 =             74.9

* * *

- Tested on: COLO 205 colon
- EXPERIMENTAL_DETAILS: NCI tumour cell line growth inhibition, 48 h; in the data active = GI50 below about 0.43 µM; inactive = the rest
Outcome codes: active, inactive

>>> df
                                   molecule  category_label
0  CN1C(=O)N[C@H]2[C@@H]3NC(=O)c4ccc(Br)n4[C@@H]3C[C@]21O          active
1  C=C1CCC2C(C)(COC(=O)CC)C(OC(=O)CC)CCC2(C)C1C/C=C1/C(=O)OCC1OC(=O)CC (stereo not drawn)        inactive
2  Cc1ccc(N(CC(=O)Nc2ccc(S(=O)(=O)N3CCC(N4CCCC4)CC3)cc2)S(=O)(=O)c2ccc(Cl)cc2)cc1        inactive
3  Cc1cc(CC(C)CC(C)(C)C)n(O)c(=O)c1 (stereo not drawn) (tested in a mixture with another compound)        inactive
4  COc1ccc2c(c1)CC[C@H](O)/C2=C/c1cc(OC)c(OC)c(OC)c1          active
5    N#CC1=C(N)NC(N2CCOCC2)=NC12Nc1ccccc1N2        inactive
6  CCN(CC)CCCC(C)N=C(C1=C(C(=NC(C)CCCN(CC)CC)c2cccc(OC)c2)C(=O)NC1=O)c1cccc(OC)c1 (stereo not drawn)        inactive
7  CCCCCCCCCCC1OC([C@@H](O)CC[C@H](O)C2CC[C@@H](CCCCCCCC(O)CC3=CC(C)OC3=O)O2)CCC1O (stereo partly drawn)        inactive

* * *

- Test system: MCF7 breast
- EXPERIMENTAL_DETAILS: NCI tumour cell line growth inhibition, 48 h

COMPOUND	RESULT_QUALIFIER	TGI (µM)
CCOC(=O)c1sc2[n+](c1C)C(=O)/C(=C/c1ccc([N+](=O)[O-])cc1)S2	=	62.6
CN1C(=O)N[C@H]2[C@@H]3NC(=O)c4ccc(Br)n4[C@@H]3C[C@]21O	=	1.08
Nc1ccn(C2OC(COC(=O)C34CC5CC(CC(C5)C3)C4)C(O)C2O)c(=O)n1 (configuration not stated)	>	100
CC(=O)OCC1OC(Oc2cc(C)c(O)cc2C/C=C(\C)CC/C=C(\C)CC(=O)CC(C)C)C(O)C(OC(C)=O)C1OC(C)=O (configuration not stated)	=	43.8
CCCCCCCCCCC1OC([C@@H](O)CC[C@H](O)C2CC[C@@H](CCCCCCCC(O)CC3=CC(C)OC3=O)O2)CCC1O (some centres not stated)	>	25
CC[C@H]1C=CCC[C@@]2(C[C@@H]3CC[C@H]4[C@@H](C(=O)OCCCCCCCCCCCCCCCC(=O)N(CCCN)C[C@@H](O)CCN)[C@@]5(CCC[C@@H](C)O5)NC(=[N+]34)N2)O1	=	3.16
COc1cc2c(cc1OC)C1(COc3cc(O)c(O)c(O)c3C1=O)C2 (configuration not stated)	=	41.1
COc1cc2c(=O)cnoc2cc1O	>	100
COc1cccc(C2c3cc4c(cc3OC(N3CCCC3)C2C)OCO4)c1O (configuration not stated)	>	83.6
O=C1C=CC(=O)c2cc(Sc3ccccc3)c(=O)ccc21	=	23.9
CC(C)(C)CC(C)(C)NCc1cc(C(C)(C)C)cc(CNC(C)(C)CC(C)(C)C)c1O	=	11.3
OCC(O)c1nc2ccc3[nH]ncc3c2c2c1CCCC2 (configuration not stated)	>	50
O=C(Nc1ccc(-n2ccc3c(NC(=O)c4ccccc4)ncnc32)cc1)Nc1cccc(Cl)c1Cl	=	5.81
CCN(CC)CCCC(C)N=C(C1=C(C(=NC(C)CCCN(CC)CC)c2cccc(OC)c2)C(=O)NC1=O)c1cccc(OC)c1 (configuration not stated)	=	3.51
CCCC(CCC)C(=O)OCC1(CO)C/C(=C\c2ccc(F)cc2)C(=O)O1 (configuration not stated)	=	31.4
CCOC(=O)C(Cc1cccn1C(=O)OC(C)(C)C)[N+](=O)[O-] (configuration not stated)	>	100
Clc1ccc(C(SCc2ccccc2)SCc2ccccc2)cc1	>	10
NC(=O)c1cccc(Nc2nccc(Nc3cccc4[nH]ncc34)n2)c1	>	25
CCOP(=O)(OCC)C(N)c1ccc(Cl)cc1 (configuration not stated)	>	100
Nc1nn2c(nc(N)c3c(N)[nH]nc32)c1N=Nc1ccc(Br)cc1	>	100
O=C(O)/C(Cc1ccc([N+](=O)[O-])cc1)=N\O	>	100
O=[N+]([O-])c1ccc(C=NCC2CCCN3CCCCC23)cc1 (configuration not stated)	=	66.6
CC(C)(C)[Si](C)(C)OC1[C@@H](O[Si](C)(C)C(C)(C)C)[C@@H](CNC(=O)NC(=O)CCl)O[C@H]1n1cnc2c(NC(=O)Nc3ccccc3)ncnc21 (some centres not stated)	=	1.62
O=Cc1ccc(-c2ccc(-c3nc4ccccc4o3)cc2)o1	>	100
Nc1nc(N)c2cc(NCc3ccc(Cl)c(Cl)c3)ccc2n1	=	2.75
CCN(CC)CCNC(=O)c1cn2c(ccc3sc4ccccc4c(=O)c32)n1	=	38.2
COc1ccc(C2SCC(=O)N2NC(=O)c2ccc(NC(C)=O)cc2)cc1 (configuration not stated)	>	100
